The values you see were collected from paper PMC7718273.

EXPERIMENT SUMMARY: Microsomal stability, human
Format: in vitro ADME
TEST CONTEXT: liver microsomes, pH 7.4, 0.5 mg/mL, NADPH, read-out: Microsomal stability (% remaining at 60 min)
PROPERTY MEASURED: remaining at 1 h, 1 µM

N#Cc1ccc(Cc2nc(C(=O)NCC(=O)N3CC(F)(F)C[C@H]3C#N)cs2)cc1	95%

----------
EXPERIMENT SUMMARY: Pharmacokinetic study in mice
Type: in vivo, C57BL/6J mice
TEST CONTEXT: male, C57BL/6J, plasma, po; mouse, p.o. 200 mg/kg; read-out: T1/2 (converted)
PROPERTY MEASURED: half-life

N#Cc1ccc(Cc2nc(C(=O)NCC(=O)N3CC(F)(F)C[C@H]3C#N)cs2)cc1	3.8 h

----------
TEST TARGET: CYP 2C9 (Homo sapiens)
Construct: from tissue; host or cells: human liver microsomes
Sequence (P11712 whole entry): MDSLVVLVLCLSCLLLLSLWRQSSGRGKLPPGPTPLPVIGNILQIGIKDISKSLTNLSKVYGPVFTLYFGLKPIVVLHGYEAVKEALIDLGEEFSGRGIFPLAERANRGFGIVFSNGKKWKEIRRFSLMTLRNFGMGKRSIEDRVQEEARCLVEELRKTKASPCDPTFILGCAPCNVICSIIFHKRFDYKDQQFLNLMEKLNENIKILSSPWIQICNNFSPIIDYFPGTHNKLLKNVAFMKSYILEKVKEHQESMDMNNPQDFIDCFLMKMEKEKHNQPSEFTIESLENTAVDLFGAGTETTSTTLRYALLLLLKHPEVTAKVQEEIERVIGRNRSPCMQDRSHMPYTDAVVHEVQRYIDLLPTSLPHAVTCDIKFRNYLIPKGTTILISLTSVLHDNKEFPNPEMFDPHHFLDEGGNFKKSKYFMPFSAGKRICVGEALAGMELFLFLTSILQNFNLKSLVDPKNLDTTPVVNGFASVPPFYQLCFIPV
EXPERIMENT SUMMARY: CYPs inhibition, human liver microsome, substrate cocktail
Format: in vitro ADME
TEST CONTEXT: 2nd of 5 values; head prints Mk; footnote lists CYPs 1A2, 2C9, 2C19, 2D6, 3A4; read-out: CYPs inhibition (IC50, µM) (H/Mk/D/R/M)
PROPERTY MEASURED: IC50

N#Cc1ccc(Cc2nc(C(=O)NCC(=O)N3CC(F)(F)C[C@H]3C#N)cs2)cc1 [BR103354]	> 50 µM

----------
EXPERIMENT SUMMARY: Pharmacokinetic study in mice
Format: in vivo, C57BL/6J mice
TEST CONTEXT: male, C57BL/6J, plasma, po; mouse, p.o. 100 mg/kg
PROPERTY MEASURED: Tmax (h)

N#Cc1ccc(Cc2nc(C(=O)NCC(=O)N3CC(F)(F)C[C@H]3C#N)cs2)cc1	1

----------
TEST TARGET: serum FAP (Homo sapiens)
Construct: also found in human serum as a soluble form lacking the transmembrane domain; from tissue; host or cells: human serum
Sequence (Q12884 24-760 limits assumed): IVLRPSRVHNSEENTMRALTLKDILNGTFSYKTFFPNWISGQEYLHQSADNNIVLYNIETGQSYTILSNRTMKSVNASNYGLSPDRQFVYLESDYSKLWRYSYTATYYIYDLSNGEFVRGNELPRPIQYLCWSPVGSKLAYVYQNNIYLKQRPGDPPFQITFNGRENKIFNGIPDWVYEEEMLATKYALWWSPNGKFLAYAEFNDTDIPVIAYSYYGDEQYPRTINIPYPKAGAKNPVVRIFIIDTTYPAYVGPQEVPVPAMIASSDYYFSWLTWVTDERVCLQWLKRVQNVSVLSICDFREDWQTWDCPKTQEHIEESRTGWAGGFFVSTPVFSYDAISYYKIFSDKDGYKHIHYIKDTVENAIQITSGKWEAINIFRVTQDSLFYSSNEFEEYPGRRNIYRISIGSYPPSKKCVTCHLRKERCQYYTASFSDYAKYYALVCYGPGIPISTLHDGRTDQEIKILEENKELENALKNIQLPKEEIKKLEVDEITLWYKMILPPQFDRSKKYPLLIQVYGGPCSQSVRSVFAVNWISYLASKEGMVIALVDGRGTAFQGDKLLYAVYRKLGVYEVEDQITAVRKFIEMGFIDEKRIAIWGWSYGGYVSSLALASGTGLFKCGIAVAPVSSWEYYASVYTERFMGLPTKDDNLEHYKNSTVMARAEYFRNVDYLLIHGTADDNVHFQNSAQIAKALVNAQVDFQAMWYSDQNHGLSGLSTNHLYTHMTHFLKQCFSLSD
EXPERIMENT SUMMARY: IC50 on serum FAP, humans
Type: biochemical
PROPERTY MEASURED: IC50 (nM)

N#Cc1ccc(Cc2nc(C(=O)NCC(=O)N3CC(F)(F)C[C@H]3C#N)cs2)cc1	29

----------
EXPERIMENT SUMMARY: Pharmacokinetic study in rats
Type: in vivo
TEST CONTEXT: male, Sprague-Dawley, plasma; rat, oral 10 mg/kg; read-out: AUC(0–6 h)
PROPERTY MEASURED: AUC(0-t) (ng·h/mL)

N#Cc1ccc(Cc2nc(C(=O)NCC(=O)N3CC(F)(F)C[C@H]3C#N)cs2)cc1 [BR103354]	19700

----------
EXPERIMENT SUMMARY: Plasma protein binding, rat
Format: in vitro ADME
TEST CONTEXT: rat (R), read-out: Plasma protein binding (% bound) (converted)
PROPERTY MEASURED: fraction unbound at 1 µg/mL

N#Cc1ccc(Cc2nc(C(=O)NCC(=O)N3CC(F)(F)C[C@H]3C#N)cs2)cc1	0.4

----------
EXPERIMENT SUMMARY: Pharmacokinetic study in mice
Type: in vivo, C57BL/6J mice
TEST CONTEXT: male, C57BL/6J, plasma, po; mouse, p.o. 1 mg/kg
PROPERTY MEASURED: AUC(0-t)

N#Cc1ccc(Cc2nc(C(=O)NCC(=O)N3CC(F)(F)C[C@H]3C#N)cs2)cc1 [BR103354]	3700 ng·h/mL

----------
EXPERIMENT SUMMARY: Kinetic solubility
Format: physicochemical
TEST CONTEXT: 22 °C, pH 3.5, aqueous buffer, kinetic from dmso stock
PROPERTY MEASURED: solubility kinetic at 2 h (µg/mL)

N#Cc1ccc(Cc2nc(C(=O)NCC(=O)N3CC(F)(F)C[C@H]3C#N)cs2)cc1	81

----------
EXPERIMENT SUMMARY: Plasma protein binding, mouse
Type: in vitro ADME
TEST CONTEXT: mouse (M), read-out: Plasma protein binding (% bound) (converted)
PROPERTY MEASURED: fraction unbound at 1 µg/mL

N#Cc1ccc(Cc2nc(C(=O)NCC(=O)N3CC(F)(F)C[C@H]3C#N)cs2)cc1	0.22

----------
TEST TARGET: CYP 3A4 (Homo sapiens, UniProt P08684)
Construct: from tissue; host or cells: human liver microsomes
Sequence (P08684 whole entry): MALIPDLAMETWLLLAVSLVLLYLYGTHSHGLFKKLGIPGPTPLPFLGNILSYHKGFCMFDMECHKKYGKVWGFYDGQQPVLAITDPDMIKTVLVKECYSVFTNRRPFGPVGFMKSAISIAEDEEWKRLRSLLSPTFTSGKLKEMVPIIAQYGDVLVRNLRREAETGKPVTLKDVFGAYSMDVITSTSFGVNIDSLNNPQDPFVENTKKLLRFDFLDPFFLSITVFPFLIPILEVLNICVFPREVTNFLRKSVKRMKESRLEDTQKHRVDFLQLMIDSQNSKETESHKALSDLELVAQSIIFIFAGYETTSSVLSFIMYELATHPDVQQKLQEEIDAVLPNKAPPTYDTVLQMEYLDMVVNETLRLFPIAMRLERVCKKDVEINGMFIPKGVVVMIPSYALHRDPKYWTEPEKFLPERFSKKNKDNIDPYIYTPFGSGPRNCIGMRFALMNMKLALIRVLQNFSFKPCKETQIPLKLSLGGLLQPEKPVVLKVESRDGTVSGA
EXPERIMENT SUMMARY: CYPs inhibition, human liver microsome, substrate cocktail
Type: in vitro ADME
TEST CONTEXT: 5th of 5 values; head prints M; footnote lists CYPs 1A2, 2C9, 2C19, 2D6, 3A4; read-out: CYPs inhibition (IC50, µM) (H/Mk/D/R/M)
PROPERTY MEASURED: IC50

N#Cc1ccc(Cc2nc(C(=O)NCC(=O)N3CC(F)(F)C[C@H]3C#N)cs2)cc1 [BR103354]	> 50 µM

----------
EXPERIMENT SUMMARY: Pharmacokinetic study in mice
Type: in vivo, C57BL/6J mice
TEST CONTEXT: male, C57BL/6J, plasma, po; mouse, p.o. 5 mg/kg
PROPERTY MEASURED: Tmax

N#Cc1ccc(Cc2nc(C(=O)NCC(=O)N3CC(F)(F)C[C@H]3C#N)cs2)cc1	30 min

----------
EXPERIMENT SUMMARY: Pharmacokinetic study in mice
Format: in vivo, C57BL/6J mice
TEST CONTEXT: mouse, plasma; summary in discussion; species and dose not stated; read-out: T1/2 (converted)
PROPERTY MEASURED: half-life (h)

N#Cc1ccc(Cc2nc(C(=O)NCC(=O)N3CC(F)(F)C[C@H]3C#N)cs2)cc1 [BR103354]	1.2

----------
EXPERIMENT SUMMARY: Pharmacokinetic study in mice
Assay type: in vivo, C57BL/6J mice
TEST CONTEXT: male, C57BL/6J, mouse, plasma, po; mice, all doses; read-out: half-life (T1/2), range over doses
PROPERTY MEASURED: half-life

N#Cc1ccc(Cc2nc(C(=O)NCC(=O)N3CC(F)(F)C[C@H]3C#N)cs2)cc1	1.2 to 4 h

----------
EXPERIMENT SUMMARY: Microsomal stability, dog
Type: in vitro ADME
TEST CONTEXT: liver microsomes, pH 7.4, dog (D), 0.5 mg/mL, NADPH, read-out: Microsomal stability (% remaining at 60 min)
PROPERTY MEASURED: remaining at 1 h, 1 µM

N#Cc1ccc(Cc2nc(C(=O)NCC(=O)N3CC(F)(F)C[C@H]3C#N)cs2)cc1 [BR103354]	> 100%

----------
TEST TARGET: serum FAP (Macaca fascicularis)
Sequence (A0A2K5VGH4 entry or part of it): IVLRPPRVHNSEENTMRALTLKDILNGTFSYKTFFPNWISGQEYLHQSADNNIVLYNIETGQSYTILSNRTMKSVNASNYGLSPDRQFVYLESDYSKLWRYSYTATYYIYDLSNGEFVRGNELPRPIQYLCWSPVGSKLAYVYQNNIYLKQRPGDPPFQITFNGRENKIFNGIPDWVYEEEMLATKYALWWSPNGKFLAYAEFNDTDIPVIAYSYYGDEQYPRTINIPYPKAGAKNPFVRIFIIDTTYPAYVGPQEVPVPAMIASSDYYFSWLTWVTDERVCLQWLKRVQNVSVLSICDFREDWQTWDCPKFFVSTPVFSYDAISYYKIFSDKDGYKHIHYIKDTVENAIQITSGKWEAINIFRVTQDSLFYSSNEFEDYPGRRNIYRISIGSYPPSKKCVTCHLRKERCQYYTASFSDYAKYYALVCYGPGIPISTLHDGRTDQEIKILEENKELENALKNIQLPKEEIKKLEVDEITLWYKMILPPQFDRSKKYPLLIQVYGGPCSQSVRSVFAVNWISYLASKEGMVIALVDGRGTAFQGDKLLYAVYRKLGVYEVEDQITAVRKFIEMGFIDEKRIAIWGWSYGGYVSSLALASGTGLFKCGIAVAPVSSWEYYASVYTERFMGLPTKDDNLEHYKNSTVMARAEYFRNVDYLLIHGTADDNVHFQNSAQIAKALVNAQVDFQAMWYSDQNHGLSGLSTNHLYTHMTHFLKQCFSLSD
EXPERIMENT SUMMARY: IC50 on serum FAP, monkeys
Assay type: biochemical
TEST CONTEXT: read-out: Serum FAP IC50 (nM): Monkey
PROPERTY MEASURED: IC50 (nM)

N#Cc1ccc(Cc2nc(C(=O)NCC(=O)N3CC(F)(F)C[C@H]3C#N)cs2)cc1	27

----------
EXPERIMENT SUMMARY: Plasma stability, human
Format: in vitro ADME
TEST CONTEXT: pH 7.4, read-out: Plasma stability (% remaining at 60 min)
PROPERTY MEASURED: remaining at 1 h, 1 µM

N#Cc1ccc(Cc2nc(C(=O)NCC(=O)N3CC(F)(F)C[C@H]3C#N)cs2)cc1 [BR103354]	> 100%

----------
EXPERIMENT SUMMARY: Pharmacokinetic study in mice
Format: in vivo, C57BL/6J mice
TEST CONTEXT: male, C57BL/6J, plasma, po; mouse, p.o. 200 mg/kg
PROPERTY MEASURED: AUC(0-t)

N#Cc1ccc(Cc2nc(C(=O)NCC(=O)N3CC(F)(F)C[C@H]3C#N)cs2)cc1	29.2 µg·h/mL

----------
TEST TARGET: CYP 2C19 (Homo sapiens, UniProt P33261)
Construct: from tissue; host or cells: human liver microsomes
Sequence (P33261 whole entry): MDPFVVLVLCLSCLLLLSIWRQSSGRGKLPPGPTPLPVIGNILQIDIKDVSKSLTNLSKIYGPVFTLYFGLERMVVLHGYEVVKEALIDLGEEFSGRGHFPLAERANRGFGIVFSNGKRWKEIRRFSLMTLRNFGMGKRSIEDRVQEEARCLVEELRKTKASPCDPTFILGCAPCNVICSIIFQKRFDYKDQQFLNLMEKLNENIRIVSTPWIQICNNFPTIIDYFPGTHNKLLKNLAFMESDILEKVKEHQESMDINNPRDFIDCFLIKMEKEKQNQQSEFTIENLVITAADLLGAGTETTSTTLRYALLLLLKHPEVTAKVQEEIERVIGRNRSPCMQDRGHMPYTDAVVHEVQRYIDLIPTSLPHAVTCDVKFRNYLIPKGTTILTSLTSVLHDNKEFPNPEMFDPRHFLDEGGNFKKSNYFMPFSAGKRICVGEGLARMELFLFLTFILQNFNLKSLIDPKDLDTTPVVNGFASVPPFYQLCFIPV
EXPERIMENT SUMMARY: CYPs inhibition, human liver microsome, substrate cocktail
Assay type: in vitro ADME
TEST CONTEXT: 3rd of 5 values; head prints D; footnote lists CYPs 1A2, 2C9, 2C19, 2D6, 3A4; read-out: CYPs inhibition (IC50, µM) (H/Mk/D/R/M)
Excerpt: Metabolites of the substrate probes were simultaneously analyzed by multiple-reaction monitoring using routine LC-MS/MS.
PROPERTY MEASURED: IC50

N#Cc1ccc(Cc2nc(C(=O)NCC(=O)N3CC(F)(F)C[C@H]3C#N)cs2)cc1 [BR103354]	> 50 µM

----------
EXPERIMENT SUMMARY: Pharmacokinetic study in mice
Type: in vivo, C57BL/6J mice
TEST CONTEXT: male, C57BL/6J, plasma, po; mouse, p.o. 100 mg/kg; read-out: T1/2 (converted)
PROPERTY MEASURED: half-life (h)

N#Cc1ccc(Cc2nc(C(=O)NCC(=O)N3CC(F)(F)C[C@H]3C#N)cs2)cc1	4

----------
EXPERIMENT SUMMARY: Pharmacokinetic study in monkeys
Format: in vivo
TEST CONTEXT: male, cynomolgus, cynomolgus monkey, plasma, inhaled or intranasal; monkey, 30 mg/kg intranasally; read-out: T1/2 (converted)
PROPERTY MEASURED: half-life (h)

N#Cc1ccc(Cc2nc(C(=O)NCC(=O)N3CC(F)(F)C[C@H]3C#N)cs2)cc1	2.8
